Origin of values: paper PMC8308740

molecular target: TbDHFR-TS (Trypanosoma brucei brucei); construct: His tag; made in house; host or cells: E. coli; assay: biochemical; assay type: biochemical
Sequence (Q27783 whole entry): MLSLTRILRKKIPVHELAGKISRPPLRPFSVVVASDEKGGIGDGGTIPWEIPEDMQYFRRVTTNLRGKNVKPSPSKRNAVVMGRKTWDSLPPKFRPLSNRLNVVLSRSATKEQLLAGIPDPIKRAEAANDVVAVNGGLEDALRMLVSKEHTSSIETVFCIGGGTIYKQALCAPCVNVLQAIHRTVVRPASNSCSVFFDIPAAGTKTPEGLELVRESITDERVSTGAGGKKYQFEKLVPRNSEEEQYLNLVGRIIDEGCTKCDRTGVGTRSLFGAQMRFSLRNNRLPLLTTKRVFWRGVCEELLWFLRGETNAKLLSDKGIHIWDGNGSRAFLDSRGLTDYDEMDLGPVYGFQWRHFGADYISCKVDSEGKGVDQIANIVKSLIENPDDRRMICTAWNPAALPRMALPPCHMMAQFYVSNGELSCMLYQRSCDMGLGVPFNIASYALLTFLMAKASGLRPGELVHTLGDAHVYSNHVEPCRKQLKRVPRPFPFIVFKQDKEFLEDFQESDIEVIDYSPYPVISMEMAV
Item-by-item account of IC50
Express the result in µM but write the number alone.

Compound	IC50 [µM]
CC1N=C(N)N=C(N)N1c1ccc(Cl)cc1 (centres unmarked) [Compound 1]	103

Q) Tell us which IC50 value is on record for CCCC1N=C(N)N=C(N)N1c1ccc(Cl)cc1 (centres unmarked) [Compound 2]
A) 7.26
